Values compiled from paper PMC9387934.

assay: Phase 1a single ascending dose study: UV-4 plasma concentrations and PK parameters (LC-MS/MS, noncompartmental); assay type: in vivo; settings: both sexes, human, plasma, po, 10 mg, 10 mg single oral dose; Geo Mean; read-out: Vz/F
Measurement Name: Vd/F (L)
Output spec: scalar in L, unitless text.

Field Vd/F (entry "COCCCCCCCCCN1C[C@H](O)[C@@H](O)[C@H](O)[C@H]1CO" ) reads 409

* * *

experiment: Phase 1a single ascending dose study: UV-4 plasma concentrations and PK parameters (LC-MS/MS, noncompartmental); assay type: in vivo; settings: both sexes, human, plasma, po, 90 mg, 90 mg single oral dose; Ar Mean; read-out: Vz/F
Measurement Name: Vd/F (L)
Output spec: scalar in L, unitless text.

Field Vd/F (entry COCCCCCCCCCN1C[C@H](O)[C@@H](O)[C@H](O)[C@H]1CO [UV-4B] ) reads 365

* * *

test: Phase 1a single ascending dose study: UV-4 plasma concentrations and PK parameters (LC-MS/MS, noncompartmental); format: in vivo; conditions: both sexes, human, plasma, po, 90 mg, 90 mg single oral dose; Geo Mean; read-out: AUC(0-8)
Measurement Name: AUC(0-t) (ng·h/mL)
Output spec: scalar in ng·h/mL, unitless text.

Field AUC(0-t) (entry COCCCCCCCCCN1C[C@H](O)[C@@H](O)[C@H](O)[C@H]1CO [UV-4B] ) reads 2790

* * *

experiment: Phase 1a single ascending dose study: UV-4 plasma concentrations and PK parameters (LC-MS/MS, noncompartmental); format: in vivo; conditions: both sexes, human, plasma, po, 1000 mg, 1000 mg single oral dose; Geometric Mean; read-out: AUC(0-inf)
Measurement Name: AUC(0-inf) (ng·h/mL)
Output spec: scalar in ng·h/mL, unitless text.

Field AUC(0-inf) (entry "COCCCCCCCCCN1C[C@H](O)[C@@H](O)[C@H](O)[C@H]1CO" ) reads 42800

* * *

Test: Phase 1a single ascending dose study: UV-4 plasma concentrations and PK parameters (LC-MS/MS, noncompartmental)
Assay type: in vivo
Conditions: both sexes, human, plasma, po, 720 mg, 720 mg single oral dose; Ar Mean; read-out: AUC(0-inf)
Method: UV-4 ((2R,3R,4R,5S)-2-(hydroxymethyl)-1-(9-methoxynonyl)piperidine-3,4,5-triol, also called N-(9’-methoxynonyl)-1-deoxynojirimycin, or MON-DNJ) hydrochloride was evaluated in a first-in-human, randomized, single-center, double-blind, placebo-controlled, parallel group, single ascending dose Phase 1a clinical trial in healthy subjects (Figs 1 and 2, ClinicalTrials.gov Identifier NCT02061358 https://clinicaltrials.gov/ct2/show/NCT02061358). […]
Measurement Name: AUC(0-inf) (ng·h/mL)
Output spec: scalar in ng·h/mL, unitless text.

Field AUC(0-inf) (entry "COCCCCCCCCCN1C[C@H](O)[C@@H](O)[C@H](O)[C@H]1CO" ) reads 32900
